Tested on: 786-0
Experiment: Mitochondrial toxicity in human 786-0 cells at 10 uM incubated with compound for 6 hrs followed by incubation with MitoTracker Red chloromethyl-X-rosamine dye for 45 mins by imaging analysis relative to control
Assay type: cell-based
Settings: 786-0, 6 h
# Activity per entry
measurement-name: Activity (%)

| smi | value-measured |
| --- | --- |
| Nc1nc(N)c2nc(CNCc3ccc(Oc4ccccc4)cc3)cnc2n1 | 0 |
| COc1ccc(CNC(=O)c2ccc(CNCc3cnc4nc(N)nc(N)c4n3)cc2)cc1OC | 0 |
| COC(=O)C1CCN(C(=O)c2ccc(NCc3cnc4nc(N)nc(N)c4n3)cc2)CC1 | 0 |
| NC(=O)C1CCN(C(=O)c2ccc(NCc3cnc4nc(N)nc(N)c4n3)cc2)CC1 | 0 |
| COC(=O)C1CCN(C(=O)c2ccc(N(CCO)Cc3cnc4nc(N)nc(N)c4n3)cc2)CC1 | 0 |
| CN(Cc1cnc2nc(N)nc(N)c2n1)c1ccc(C(=O)N2CCCCC2)cc1 | 15 |
| COc1ccc(Oc2ccc(CN(C)Cc3cnc4nc(N)nc(N)c4n3)cc2)cc1 | 1 |
| COC(=O)C1CCN(C(=O)c2ccc(SCc3cnc4nc(N)nc(N)c4n3)nc2)CC1 | 20 |
| CCN(Cc1cnc2nc(N)nc(N)c2n1)c1ccc(C(=O)c2ccccc2)cc1 | 0 |
| Nc1nc(N)c2nc(CNc3ccc(C(=O)N4CCC(C(=O)O)CC4)cc3)cnc2n1 | 0 |
